assay: chemical genetic growth profiling, strain panel (AID 1159580); details: S. cerevisiae deletion strains, growth OD, locus YNL183C, strain NPR1, active compounds read low
Screen size: about 5,500 compounds; about 2,000 (36%) were called active. Inconclusive results (about 18%) are left out. This is one part of the list.
endpointName: normalized growth
Keep it simple and answer with nothing but the number.

Would you please look over these solved cases?
- compound: "Cc1cc(O)c2c(c1)Cc1cccc(O)c1C2=O"
  testResult: 0.967
- compound: "Nc1c2ccccc2nc2ccccc12 (tested in a mixture with another compound)"
  testResult: 0.483

Alright, here's another compound for you.
What does the data say about its normalized growth? Entry: O=C(Nc1ccc(Cl)cc1)SCc1c(Cl)cccc1Cl
0.821

---

experiment: chemical genetic growth profiling, strain panel (AID 1159580); conditions: S. cerevisiae deletion strains, growth OD, locus YOR061W, strain CKA2, active compounds read low
Hit rate of the full screen: of about 5,500 compounds, about 2,000 (36%) were called active. Not shown: some 18% with an inconclusive outcome. The other results are listed elsewhere or left out.
endpointName: normalized growth
Answer with a bare number; do not write a unit.

Record excerpt, results attached:
- molecule: "CCOC(=O)OC(C)OC(=O)C1N2C(=O)C(NC(=O)[C@H](N)c3ccccc3)C2SC1(C)C (some centres undefined)"
  testResult: 0.949
- molecule: "C#C[C@]1(OC(C)=O)CCC2C3CCC4=CC(=O)CC[C@@H]4C3CC[C@@]21C (some centres undefined)"
  testResult: 0.942
- molecule: "Cc1nc(-c2ccccn2)nc(N(C)Cc2ccccc2)c1Cl"
  testResult: 0.941

Next up:
What value of normalized growth has been reported for the following molecule? O=C(NCC1COc2ccccc2O1)c1ccc(Cl)cc1 (centres undefined)
0.886

---

test: chemical genetic growth profiling, strain panel (AID 1159580); details: S. cerevisiae deletion strains, growth OD, locus YHR079C, strain IRE1, active compounds read low
The campaign covered roughly 5,500 compounds. About 2,000 (36%) were called active. Another 18% or so got no clear call; they are omitted. This is one part of the list.
Each item that follows carries a reported normalized growth.
Give only the figure.

Here's what some known entries look like.
- molecule: "CC(C)=CCCC1(C)C=Cc2c(O)c3c(c(CC=C(C)C)c2O1)OC12C(CC4CC1C(C)(C)OC2(C/C=C(/C)C(=O)O)C4O)C3=O (stereo not given)"
  normalized growth: 0.985
- molecule: "CC(C)=CCCC1(C)C=Cc2c(O)c3c(c(CC=C(C)C)c2O1)OC12C(=CC4CC1C(C)(C)OC2(C/C=C(/C)C(=O)O)C4O)C3=O (stereo not given)"
  normalized growth: 0.971
- molecule: "CNCc1ccccc1"
  normalized growth: 0.975
- molecule: "O=S(=O)(NC(=S)Nc1ccc(Cl)c(Cl)c1)c1ccccc1"
  normalized growth: 1

Consider the additional molecule presented here.
normalized growth lookup needed for NCCC(=O)N[C@@H](Cc1cnc[nH]1)C(=O)O , thanks.
1.02

---

experiment: chemical genetic growth profiling, strain panel (AID 1159580); conditions: S. cerevisiae deletion strains, growth OD, locus YGL227W, strain vid30, active compounds read low
Hit rate of the full screen: of about 5,500 compounds, about 2,000 (36%) were called active. Inconclusive results (about 18%) are left out. The list shows a part of the results.
endpointName: normalized growth

- molecule: "CC(=O)O[C@@H]1CC[C@@]2(C)C(CC[C@]3(C)C2CC=C2C4CC(C)(C)CC[C@]4(C(=O)O)CC[C@]23C)C1(C)C (some centres undefined)"
  testResult: "1.01 (inactive)"
- molecule: "OC(CCN1CCCCC1)(c1ccccc1)C1CCCCC1 (centres undefined)"
  testResult: "0.982 (inactive)"
- molecule: "OC(CCN1CCCC1)(c1ccccc1)C1CCCCC1 (centres undefined)"
  testResult: "0.99 (inactive)"

Param item = O=C1C(O)=C(O)C(=O)C(O)=C1O ; retrieve measured normalized growth.
1.01 (inactive)

---

test: chemical genetic growth profiling, strain panel (AID 1159580); details: S. cerevisiae deletion strains, growth OD, locus YOL147C, strain pex11, active compounds read low
Hit rate of the full screen: of about 5,500 compounds, about 2,000 (36%) were called active. Not shown: some 18% with an inconclusive outcome. Some of the results follow.
Some compounds, each annotated with its measured normalized growth.
Would you mind answering with just the numeric figure?

Check out these entries, answers already filled in.
- compound: "O=C(O)/C=C1\\CCCc2ccccc2C1O (stereo not given)"
  testResult: 0.991
- compound: "CCC(C)C(=O)O[C@H]1[C@H](O)C2C(CN3CC(C)CCC3[C@@]2(C)O)C2C[C@]34O[C@]5(O)C(OC(=O)C(C)(O)CC)CC[C@@]3(C)C5C(OC(C)=O)[C@@H](OC(C)=O)C4[C@@]21O (stereo not given in full)"
  testResult: 0.994

Given CC(=O)Nc1ccc(OCC(O)CNC(C)C)cc1 (stereo not given) , state its recorded normalized growth.
0.999

CC(C)(C#N)O[C@@H]1O[C@H](CO)[C@@H](O)[C@H](O)[C@H]1O ?
0.995

---

The following molecules are listed with their measured normalized growth values.
test: chemical genetic growth profiling, strain panel (AID 1159580); conditions: S. cerevisiae deletion strains, growth OD, locus YNL250W, strain rad50, active compounds read low
About 2,000 (36%) of roughly 5,500 compounds were called active. Another 18% or so got no clear call; they are omitted. Some of the results follow.
Give your answer as a number; write no unit.

- molecule: "CNCc1ccccc1"
  endpointName: "normalized growth"
  testResult: 0.981
- molecule: "COC(=O)/C(C)=C\\CC12OC(C)(C)C3CC(C=C4C(=O)c5c(O)c6c(c(CCC(C)(C)Cl)c5OC431)OC1(C)CCC(=C(C)C)C6C1)C2=O (centres undefined)"
  endpointName: "normalized growth"
  testResult: 1.01
- molecule: "Nc1ccc(S(=O)(=O)Nc2ccnn2-c2ccccc2)cc1"
  endpointName: "normalized growth"
  testResult: 1

With those in mind, consider the next molecule.
Sample CC(=O)O[C@H]1CC[C@@]2(C)C(CC[C@]3(C)C2CC=C2C4CC(C)(C)CC[C@]4(C)CC[C@]23C)C1(C)C (some centres undefined) — what was its normalized growth?
1.02

---

assay: chemical genetic growth profiling, strain panel (AID 1159580); details: S. cerevisiae deletion strains, growth OD, locus YLR268W, strain sec22, active compounds read low
Out of some 5,500 compounds screened, about 2,000 (36%) were called active. Not shown: some 18% with an inconclusive outcome. This is one part of the list. Where a SMILES comes first, the peptide text is derived from it. Bridges are numbered along the chain shown (N, C = ends). [ ]: non-standard residue; d: D form. The star is where a group is joined. ξ: configuration not given here. ξDab(CH2SO3H) = NC(CCNCS(=O)(=O)O)C(=O)O; Heptanoyl(6-Me) = CC(C)CCCCC(=O)*; Dab = NCC[CH](N)C(=O)O
endpointName: normalized growth
Reply with just the number.

- compound: "CCC(C)C1NC(=O)C(CCNCS(=O)(=O)O)NC(=O)C(NC(=O)C(CCNCS(=O)(=O)O)NC(=O)C(NC(=O)C(CCNCS(=O)(=O)O)NC(=O)CCCCC(C)C)C(C)O)CCNC(=O)C(C(C)O)NC(=O)C(CCNCS(=O)(=O)O)NC(=O)C(CCNCS(=O)(=O)O)NC(=O)C(C(C)CC)NC1=O (stereo not drawn) ({Heptanoyl(6-Me)}-[ξDab(CH2SO3H)]T[ξDab(CH2SO3H)][Dab][ξDab(CH2SO3H)]II[ξDab(CH2SO3H)][ξDab(CH2SO3H)]T; lactam 4-C; configuration not given here)"
  normalized growth: 0.978
- compound: "CC(C)=CCCC1(C)C=Cc2c(O)c3c(c(CC=C(C)C)c2O1)OC12C(=CC4CC1C(C)(C)OC2(C/C=C(/C)C(=O)O)C4=O)C3=O (stereo not drawn)"
  normalized growth: 0.84

Consider the compound COC1=C[C@@H]2[C@@H]3Cc4ccc(OC)c(O)c4[C@]2(CCN3C)CC1=O and give its measured normalized growth.
0.967

---

test: chemical genetic growth profiling, strain panel (AID 1159580); conditions: S. cerevisiae deletion strains, growth OD, locus YMR231W, strain pep5
Out of some 5,500 compounds screened, about 2,000 (36%) were called active. Inconclusive results (about 18%) are left out. No stated cut-off is given here; in the data, active means normalized growth mostly below about 0.91 (no sharp cut-off); inconclusive means no clear call, values can overlap the other calls; inactive means mostly above about 0.92. This is one part of the list.
Your reply should match one of these outcome classes. T (active), F (inactive)

- molecule: "COc1cc(C(=O)O[C@H]2CC[C@@]3(C)[C@@H]4CC[C@H]5[C@]6(O)C[C@H](O)[C@@]7(O)[C@@H](CN8C[C@@H](C)CC[C@H]8[C@@]7(C)O)[C@]6(O)C[C@@]53O[C@]24O)cc(OC)c1OC"
  classAssignment: "F"
- molecule: "OC(CCN1CCCC1)(c1ccccc1)C1CCCCC1 (centres undefined)"
  classAssignment: "F"
- molecule: "CCC(C)C(NC)C(=O)O (centres undefined)"
  classAssignment: "F"

Continue with the next molecule.
Fill in: this test's call for CC1OC(=O)C(C(C)C)NC(=O)C(C(C)C)OC(=O)C(C(C)C)NC(=O)C(C)OC(=O)C(C(C)C)NC(=O)C(C(C)C)OC(=O)C(C(C)C)NC(=O)C(C)OC(=O)C(C(C)C)NC(=O)C(C(C)C)OC(=O)C(C(C)C)NC1=O (centres undefined) is ___
T
